Consider the following molecules and their measured log10 of IC50 readings.
# SYSTEM_UNDER_TEST: TF-VIIa (Homo sapiens, UniProt P08709)
# Construct: 2nM recombinant human factor VIIa; purchased American Diagnostica, Greenwich CT; host or cells: soluble TF made in house in E. coli
# Sequence (P08709 213-466 limits assumed): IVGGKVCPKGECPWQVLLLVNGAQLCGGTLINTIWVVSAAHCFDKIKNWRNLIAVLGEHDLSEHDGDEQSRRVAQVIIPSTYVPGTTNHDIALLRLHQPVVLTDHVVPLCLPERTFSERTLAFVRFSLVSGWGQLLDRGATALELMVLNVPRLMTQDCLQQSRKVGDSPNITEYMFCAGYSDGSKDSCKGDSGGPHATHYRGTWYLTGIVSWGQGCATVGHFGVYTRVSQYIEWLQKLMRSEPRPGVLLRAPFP
# Sequence (P08709 61-212 limits assumed): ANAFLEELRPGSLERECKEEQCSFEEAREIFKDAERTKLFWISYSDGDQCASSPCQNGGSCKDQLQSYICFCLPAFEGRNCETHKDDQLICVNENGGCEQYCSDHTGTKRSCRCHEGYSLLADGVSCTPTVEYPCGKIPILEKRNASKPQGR
# Sequence (P13726 33-251 partner limits assumed): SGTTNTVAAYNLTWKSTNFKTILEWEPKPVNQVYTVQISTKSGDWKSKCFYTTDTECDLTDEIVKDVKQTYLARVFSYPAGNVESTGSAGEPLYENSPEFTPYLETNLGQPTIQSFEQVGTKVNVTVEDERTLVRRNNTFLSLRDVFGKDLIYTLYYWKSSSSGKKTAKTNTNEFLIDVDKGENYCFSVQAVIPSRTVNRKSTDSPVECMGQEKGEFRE
# PROCEDURE_DETAILS: TF-VIIa Assay
# Assay type: biochemical
# EXPERIMENTAL_PARAMETERS: read-out: IC50 or % Inhibition TF-VIIa (30 µM); cells given as a plain number (IC50)
REPORTED_ENDPOINT: log10 of IC50 (log10 of the value in nM)

INSERT INTO results (molecule, reported_endpoint, val) VALUES
  ('C[C@@H](C(=O)NCc1ccc(C(=N)N)cc1)n1c(-c2ccccc2)c(Cl)nc(NC2CCC2)c1=O', 'log10 of IC50', 3.41),
  ('N=C(N)c1ccc(CNC(=O)Cn2c(-c3ccsc3)c(Cl)nc(NC3CCC3)c2=O)cc1', 'log10 of IC50', 2.60),
  ('N=C(N)c1ccc(CNC(=O)Cn2c(-c3ccccc3)c(Cl)nc(NC3CCc4ccccc43)c2=O)cc1 (stereo not shown)', 'log10 of IC50', 3.97),
  ('N=C(N)NC/C=C\CNC(=O)Cn1c(-c2ccccc2)cnc(NCCc2ccccc2)c1=O', 'log10 of IC50', 3.26),
  ('N=C(N)c1ccc(CNC(=O)Cn2c(-c3ccccc3)c(Cl)nc(NCc3ccncc3)c2=O)cc1', 'log10 of IC50', 3.23),
  ('N=C(N)c1ccc(CNC(=O)Cn2c(-c3cccs3)c(Cl)nc(NC3CCC3)c2=O)cc1', 'log10 of IC50', 2.78),
  ('CCc1c(Cl)nc(NCc2ccncc2)c(=O)n1CC(=O)NCc1ccc(C(=N)N)cc1', 'log10 of IC50', 3.88),
  ('CC(C)C(C)Nc1nc(Cl)c(-c2ccccc2)n(CC(=O)NCc2ccc(C(=N)N)cc2)c1=O (stereo not shown)', 'log10 of IC50', 2.73),
  ('COc1ccc(CNc2nc(Cl)c(-c3ccccc3)n(CC(=O)NCc3ccc(C(=N)N)cc3)c2=O)cc1', 'log10 of IC50', 4.43),
  ('COc1ccc(-c2c(Cl)nc(NCCc3ccc(Cl)cc3)c(=O)n2CC(=O)NCc2ccc(C(=N)N)cc2)cc1', 'log10 of IC50', 4.24),
  ('C[Si](C)(C)CNc1nc(Cl)c(-c2ccccc2)n(CC(=O)NCc2ccc(C(=N)N)cc2)c1=O', 'log10 of IC50', 3.48),
  ('N=C(N)c1ccc(CNC(=O)Cn2c(-c3cccs3)c(Cl)nc(NCc3ccccc3)c2=O)cc1', 'log10 of IC50', 3.23),
  ('N=C(N)c1ccc(CNC(=O)Cn2c(-c3ccccc3)c(Cl)nc(NCCCN3CCCC3=O)c2=O)cc1', 'log10 of IC50', 4.11),
  ('N=C(N)c1ccc(CNC(=O)Cn2c(-c3c(Cl)cccc3Cl)c(Cl)nc(NC3CCC3)c2=O)cc1', 'log10 of IC50', 2.90),
  ('N=C(N)c1ccc(CNC(=O)Cn2c(-c3ccccc3)c(Cl)nc(NCCNc3ncccc3C(F)(F)F)c2=O)cc1', 'log10 of IC50', 3.00),
  ('N=C(N)c1ccc(CNC(=O)Cn2c(-c3ccc4c(c3)OCO4)c(Cl)nc(NCCc3cccc(Cl)c3)c2=O)cc1', 'log10 of IC50', 4.11);
